# Tested on: IGROV1 ovarian
# assay.details: NCI tumour cell line growth inhibition, 48 h
measured.attribute: TGI

Look over these answered cases.
Item CCOC(=O)c1noc2c1CCc1c-2cn(Cc2ccc(OC)cc2)c1-c1cc(OC)c(OC)c(OC)c1 has what recorded TGI?
> 100 µM

// repeat for COc1ccc(-c2csc3c2-n2cccc2C3=O)cc1 and report
> 88.5 µM

// repeat for CC(=O)/C(=C\c1ccc(Cl)cc1)c1ccccc1 and report
> 100 µM

// repeat for C/C=C1/CC(C(=O)OC)N(C(=O)OCc2ccccc2)C1=S (stereo not given) and report
> 100 µM

// repeat for O=c1nc2n(-c3cccc(Cl)c3)c3ccc([N+](=O)[O-])cc3cc-2c(=O)[nH]1 and report
> 25 µM

More entries:
Item COC(=O)C(=O)C(C(=O)C(=O)Nc1ccc(Cl)c(Cl)c1)c1nc2ccc(C(=O)c3ccccc3)cc2[nH]c1=O (stereo not given) has what recorded TGI?
> 100 µM

// repeat for CCC(=C(c1ccc(OCCN2CCCCC2)cc1)c1ccc(OCCN2CCCCC2)cc1)c1ccc(Cl)cc1 and report
> 16.7 µM

// repeat for Cc1cn([C@@H]2O[C@H](CO[Si](C)(C)C(C)(C)C)[C@]3(O[C@H]3C(=O)NO)[C@H]2O[Si](C)(C)C(C)(C)C)c(=O)[nH]c1=O and report
3.19 µM

// repeat for COC(=O)[C@@H](C)C[C@H](Cc1ccccc1)NC(=O)c1nc([C@@H](C[C@H](C(C)C)N(C)C(=O)[C@@H](NC(=O)[C@H]2C[C@H](O)CCN2C)C(C)C)OC(C)=O)sc1C(C)C and report
> 11.1 µM

// repeat for COc1cc([C@@H]2c3cc4c(cc3[C@H](OC3OC5COC(c6ccco6)OC5C(O)C3O)C3COC(=O)[C@@H]32)OCO4)cc(OC)c1OC (stereo not given in full) and report
> 52.7 µM

// repeat for O=C(CCCc1ccc(N(CCCl)CCCl)cc1)NCc1ccccc1 and report
43.9 µM

// repeat for CC1(C)CNC(=O)C2(CCCO2)CNC(C)(C)CNC(=O)C2(CCCO2)CN1 (stereo not given) and report
> 10 µM

// repeat for O=C(Cc1ccccc1)NN1C(=O)C(Cl)C1c1ccc(Cl)cc1 (stereo not given) and report
> 100 µM

// repeat for COc1ccc(N2C(=O)c3cc([N+](=O)[O-])cnc3S2(=O)=O)cc1 and report
> 100 µM

// repeat for COc1ccc(C(=O)C(C(=O)CCC(=O)Nc2ccc(Cl)c(Cl)c2)c2ccc(OC)cc2)cc1 (stereo not given) and report
> 100 µM

// repeat for CC(NCc1c(O)ccc2c(-c3ccccc3)cc(=O)oc12)C(=O)O (stereo not given) and report
> 100 µM

// repeat for COC(=O)C(Cc1ccccc1)NC(=O)CSc1nnc(COc2ccc(Cl)cc2)n1-c1ccccc1 (stereo not given) and report
> 100 µM

// repeat for Nc1ccccc1N and report
> 100 µM

// repeat for NC(N)=N/N=C\c1c(-c2cccc([N+](=O)[O-])c2)nc2sccn12 and report
33.6 µM

// repeat for CC(=O)CCC#Cc1ccccc1C(=O)C(C)=[N+]=[N-] and report
> 100 µM

// repeat for Brc1ccc(C2=NCSC(c3ccc(Br)cc3)=N2)cc1 and report
> 100 µM

// repeat for CN1CCN(Cc2ccc(NC(=O)c3cncc(C#Cc4cnc(N)c5ncccc45)c3)cc2C(F)(F)F)CC1 and report
2.58 µM

// repeat for CC1=C(CCCOC(=O)[C@H](N)CC(C)C)C2=C(C)C3(CC3)[C@@](C)(O)C(=O)C2=C1 and report
6.19 µM

// repeat for COc1cc2nc3n(c2cc1OC)C(O)c1c(Cl)nc(SC)nc1S3 (stereo not given) and report
13 µM

// repeat for Cc1c(C(Cc2ccccc2N(C)C(=O)/C=C\C(=O)O)c2c[nH]c3ccccc23)c2ccccc2n1C (stereo not given) and report
39.8 µM
